Exercise: for every item that follows, state its recorded inhibition at 10 µM.
Target: B1R of the rat (Rattus norvegicus)
Construct: expressed in transfected cells; host or cells: CHO K1 cells (rB1R cells)
Sequence (P97583 whole entry): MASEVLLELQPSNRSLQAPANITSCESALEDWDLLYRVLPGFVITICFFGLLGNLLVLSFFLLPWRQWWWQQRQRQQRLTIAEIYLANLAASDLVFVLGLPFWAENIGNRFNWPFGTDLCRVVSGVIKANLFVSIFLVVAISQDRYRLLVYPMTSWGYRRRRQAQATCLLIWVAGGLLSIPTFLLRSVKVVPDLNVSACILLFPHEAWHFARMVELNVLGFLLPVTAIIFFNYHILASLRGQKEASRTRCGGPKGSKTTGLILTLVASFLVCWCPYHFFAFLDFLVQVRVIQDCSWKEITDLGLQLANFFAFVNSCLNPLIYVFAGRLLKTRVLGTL
Experiment: FLIPR Ca2+ influx assay, B1R antagonism, rat (rB1R CHO K1 cells)
Assay type: cell-based
Settings: test substance 10 μM; CHO K1 cells stably transfected with rat B1R; agonist Des-Arg9-bradykinin at EC80; % inhibition compared with maximum achievable inhibition; read-out: B1R antagonism, rat [10 μM] % inhibition
Structures can show the parent of a compound that is named as a salt.
Please give a number only; it is taken to be in %.

For B1R of the rat (Rattus norvegicus), give the measured inhibition at 10 µM of the entry COc1cc(C)c(S(=O)(=O)N(C)CCOCC(=O)N2CCC(CCCN3CCCC3)(c3cccnc3)CC2)c(C)c1
101

For B1R of the rat (Rattus norvegicus), give the measured inhibition at 10 µM of the entry CN(C)CCC1(c2cccnc2)CCN(C(=O)CC2CCCCN2S(=O)(=O)c2cccc(C(F)(F)F)c2)CC1 (stereo not drawn)
65

For B1R of the rat (Rattus norvegicus), give the measured inhibition at 10 µM of the entry COc1cc(C)c(S(=O)(=O)N2CCCCC2CCOCC(=O)N2CCC(CCCN3CCCC3)(c3cccnc3)CC2)c(C)c1 (stereo not drawn)
100

For B1R of the rat (Rattus norvegicus), give the measured inhibition at 10 µM of the entry Cc1cccc(Cl)c1S(=O)(=O)N1CCCCC1CCCC(=O)N1CCC(CCCN2CCCC2)(c2ccncc2)CC1 (stereo not drawn)
97

For B1R of the rat (Rattus norvegicus), give the measured inhibition at 10 µM of the entry COc1cc(C)c(S(=O)(=O)N(C)CCOCC(=O)N2CCC(CCCN3CCCC3)(c3ccncc3)CC2)c(C)c1
100

For B1R of the rat (Rattus norvegicus), give the measured inhibition at 10 µM of the entry COc1cc(C)c(S(=O)(=O)N2CCCC[C@H]2COCC(=O)N2CCC(CCCN3CCCC3)(c3cccnc3)CC2)c(C)c1 [Example 81, hydrochloride]
102

For B1R of the rat (Rattus norvegicus), give the measured inhibition at 10 µM of the entry COc1cc(C)c(S(=O)(=O)N2CCCCC2COCC(=O)N2CCC(CCCN3CCCC3)(c3cccnc3)CC2)c(C)c1 (stereo not drawn)
102

For B1R of the rat (Rattus norvegicus), give the measured inhibition at 10 µM of the entry O=C(CC(NS(=O)(=O)c1ccc2ccccc2c1)c1ccccc1)N1CCC(CCCN2CCCC2)(c2cccnc2)CC1 (stereo not drawn)
81

For B1R of the rat (Rattus norvegicus), give the measured inhibition at 10 µM of the entry O=C(COCC1COc2ccccc2N1S(=O)(=O)c1ccccc1C(F)(F)F)N1CCC(CCCN2CCCC2)(c2ccncc2)CC1 (stereo not drawn)
68

For B1R of the rat (Rattus norvegicus), give the measured inhibition at 10 µM of the entry CN(C)CCCC1(c2cccnc2)CCN(C(=O)CC2CCCCN2S(=O)(=O)c2cccc(C(F)(F)F)c2)CC1 (stereo not drawn)
60

For B1R of the rat (Rattus norvegicus), give the measured inhibition at 10 µM of the entry O=C(CC(NS(=O)(=O)c1ccc2ccccc2c1)c1ccccc1)N1CCC(CCN2CCCC2)(c2cccnc2)CC1 (stereo not drawn)
63

For B1R of the rat (Rattus norvegicus), give the measured inhibition at 10 µM of the entry COc1cc(C)c(S(=O)(=O)N(CCOCC(=O)N2CCC(CCCN3CCCC3)(c3cccnc3)CC2)c2ccccc2)c(C)c1
103

For B1R of the rat (Rattus norvegicus), give the measured inhibition at 10 µM of the entry CN(CCCC(=O)N1CCC(CCCN2CCCC2)(c2cccnc2)CC1)S(=O)(=O)c1cccc(C(F)(F)F)c1
53

For B1R of the rat (Rattus norvegicus), give the measured inhibition at 10 µM of the entry O=C(COCC1COc2ccccc2N1S(=O)(=O)c1ccccc1C(F)(F)F)N1CCC(CCCN2CCCC2)(c2cccnc2)CC1 (stereo not drawn)
84

For B1R of the rat (Rattus norvegicus), give the measured inhibition at 10 µM of the entry COc1cc(C)c(S(=O)(=O)N(C)CCOCC(=O)N2CCC(CCCN3CCCC3)(c3cccnc3)CC2)c(C)c1C
101

For B1R of the rat (Rattus norvegicus), give the measured inhibition at 10 µM of the entry Cc1cc(S(=O)(=O)N2CCCCC2CCC(=O)N2CCC(CCCN3CCCC3)(c3cccnc3)CC2)c(C)cc1Cl (stereo not drawn)
76

For B1R of the rat (Rattus norvegicus), give the measured inhibition at 10 µM of the entry COc1cc(C)c(S(=O)(=O)N2CCCC[C@H]2COCC(=O)N2CCC(CN3CCCC3)(c3cccnc3)CC2)c(C)c1
63

For B1R of the rat (Rattus norvegicus), give the measured inhibition at 10 µM of the entry COc1cc(C)c(S(=O)(=O)N2c3ccccc3CCC2COCC(=O)N2CCC(CCCN3CCCC3)(c3cccnc3)CC2)c(C)c1 (stereo not drawn)
102

For B1R of the rat (Rattus norvegicus), give the measured inhibition at 10 µM of the entry COc1cc(C)c(S(=O)(=O)N(C)CCOCC(=O)N2CCC(CCCN(C)C)(c3cccnc3)CC2)c(C)c1
101

For B1R of the rat (Rattus norvegicus), give the measured inhibition at 10 µM of the entry O=C(CCCC1CCCCN1S(=O)(=O)c1ccccc1C(F)(F)F)N1CCC(CCCN2CCCC2)(c2cccnc2)CC1 (stereo not drawn)
70

For B1R of the rat (Rattus norvegicus), give the measured inhibition at 10 µM of the entry CN(C)CCC1(c2cccnc2)CCN(C(=O)CC(NS(=O)(=O)c2ccc3ccccc3c2)c2ccccc2)CC1 (stereo not drawn)
37

For B1R of the rat (Rattus norvegicus), give the measured inhibition at 10 µM of the entry Cc1cc(S(=O)(=O)N2CCCCC2CCC(=O)N2CCC(CCCN(C)C)(c3cccnc3)CC2)c(C)cc1Cl (stereo not drawn)
98

For B1R of the rat (Rattus norvegicus), give the measured inhibition at 10 µM of the entry COc1cc(C)c(S(=O)(=O)N2CCCC[C@H]2COCC(=O)N2CCC(CCN3CCCC3)(c3cccnc3)CC2)c(C)c1 [Example 80, hydrochloride]
104

For B1R of the rat (Rattus norvegicus), give the measured inhibition at 10 µM of the entry COc1cc(C)c(S(=O)(=O)N2c3ccccc3CCC2COCC(=O)N2CCC(CCCN3CCCC3)(c3ccncc3)CC2)c(C)c1 (stereo not drawn)
98

For B1R of the rat (Rattus norvegicus), give the measured inhibition at 10 µM of the entry COc1cc(C)c(S(=O)(=O)N(CCOCC(=O)N2CCC(CCCN3CCCC3)(c3cccnc3)CC2)Cc2ccccc2)c(C)c1
103

For B1R of the rat (Rattus norvegicus), give the measured inhibition at 10 µM of the entry Cc1cccc(Cl)c1S(=O)(=O)N(CCOCC(=O)N1CCC(CCCN2CCCC2)(c2cccc(Cl)c2)CC1)C1CC1
92

For B1R of the rat (Rattus norvegicus), give the measured inhibition at 10 µM of the entry COc1cc(C)c(S(=O)(=O)N(CCOCC(=O)N2CCC(CCCN3CCCC3)(c3cccnc3)CC2)Cc2cnc3ccccc3c2)c(C)c1
103
